Biological target: hLBAT (Homo sapiens)
Construct: kept under Geneticin selection
Sequence (Q14973 1-349): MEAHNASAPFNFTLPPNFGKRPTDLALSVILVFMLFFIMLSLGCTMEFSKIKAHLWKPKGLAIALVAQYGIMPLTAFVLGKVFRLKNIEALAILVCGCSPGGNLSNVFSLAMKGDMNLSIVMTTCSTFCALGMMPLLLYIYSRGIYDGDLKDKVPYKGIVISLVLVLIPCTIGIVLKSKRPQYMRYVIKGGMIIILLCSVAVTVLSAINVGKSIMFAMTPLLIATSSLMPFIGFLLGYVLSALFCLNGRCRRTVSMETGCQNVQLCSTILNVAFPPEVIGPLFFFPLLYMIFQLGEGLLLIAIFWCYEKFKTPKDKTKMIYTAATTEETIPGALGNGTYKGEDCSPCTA
Test: LBAT (h/m) assay, 3H-taurocholic acid uptake in human LBAT-overexpressing cells
Settings: 0.3 μM 3H-taurocholic acid and 7.5 μM cold taurocholic acid, 20 minutes
measureName: IC50 (µM)
Numbers only; they are read as µM.

Here are 3 molecules together with their reported answers.
molecule: CCC[C@@]1(CC)CN(c2ccccc2)c2cc(SC)c(O/C=C(\F)C(=O)O)cc2S(=O)(=O)C1.CCC[C@]1(CC)CN(c2ccccc2)c2cc(SC)c(O/C=C(\F)C(=O)O)cc2S(=O)(=O)C1 (mixture of isomers) [Example 18]
IC50 / µM: 0.038
--
molecule: CCCCC1(CC)CN(c2ccccc2)c2cc(N(C)C)c(O/C=C(\F)C(=O)O)cc2S(=O)(=O)N1 (stereo not shown)
IC50 / µM: 0.124
--
molecule: CCCCC1(CC)CN(c2ccccc2)c2cc(N(C)C)c(O/C=C/C(=O)O)cc2S(=O)(=O)N1 (stereo not shown)
IC50 / µM: 1.86

Proceed to the following item.
Report IC50 for CCCCC1(CC)CN(c2ccc(F)cc2)c2cc(SC)c(O/C=C(\F)C(=O)O)cc2S(=O)(=O)C1 (stereo not shown) tested on hLBAT (Homo sapiens). 0.014

###

Molecular target: hLBAT (Homo sapiens)
Construct: kept under Geneticin selection
Experiment: LBAT (h/m) assay, 3H-taurocholic acid uptake in human LBAT-overexpressing cells
Conditions: 0.3 μM 3H-taurocholic acid and 7.5 μM cold taurocholic acid, 20 minutes
pIC50: −log10 of the molar value.
Respond with Condition met for pIC50 values of 8 and above, Condition not met for values below.

See these solved cases before continuing.
compound: CCC1(C(C)C)CN(c2ccccc2)c2cc(SC)c(O/C=C/C(=O)O)cc2S(=O)(=O)C1 (stereo not shown)
systemTested: hLBAT (Homo sapiens)
label: Condition not met
--
compound: CCCCC1(CC)CN(c2ccc(F)cc2)c2cc(SC)c(O/C=C/C(=O)O)cc2S(=O)(=O)C1 (stereo not shown)
systemTested: hLBAT (Homo sapiens)
label: Condition not met
--
compound: CCCCC1(CCCC)CN(c2ccc(F)cc2)c2cc(SC)c(O/C=C(\F)C(=O)O)cc2S(=O)(=O)C1
systemTested: hLBAT (Homo sapiens)
label: Condition not met
--
compound: CCC[C@@]1(CC)CN(c2ccccc2)c2cc(SC)c(O/C=C(\F)C(=O)O)cc2S(=O)(=O)C1.CCC[C@]1(CC)CN(c2ccccc2)c2cc(SC)c(O/C=C(\F)C(=O)O)cc2S(=O)(=O)C1 (mixture of isomers) [Example 19]
systemTested: hLBAT (Homo sapiens)
label: Condition met

Let us examine a further case.
pIC50 >= 8 for CCCC1(CC)CN(c2ccccc2)c2cc(SC)c(O/C=C/C(=O)O)cc2S(=O)(=O)C1 (stereo not shown) ? Condition not met
